Task for the reader: assign each of the following compounds its reported MNTC at 24 h.
assay_name: Cytotoxicity against African green monkey Vero cells incubated for 24 hrs by neutral red uptake assay
Type: toxicity, cell-based
details: chlorocebus sabaeus, read-out: MTD
Output spec: scalar in µM, unitless text.

The recorded MNTC at 24 h for O=C(NCCNCCSc1ccccc1)C1CCCCC1 is 38

// MNTC at 24 h lookup, compound = CC(=O)c1ccccc1NC(=O)c1ccccc1F , result: 37

CCCSCCNCCNC(=O)/C=C/c1ccccc1 yielded MNTC at 24 h of 38

Query O=C(/C=C/c1ccccc1F)c1ccccc1O yields MNTC at 24 h of 5.67

response.value for Nc1nc(N)c2[nH]cnc2n1 (field: MNTC at 24 h) = 9.3

So for CC(=O)c1ccccc1NC(=O)c1ccc(F)cc1 , the logged MNTC at 24 h turned out to be 10

The compound COc1ccc(/C=C/C(=O)c2ccccc2O)cc1 showed MNTC at 24 h equal to 7.35
